# Assayed System: T1, human LAMP1 at the cell surface (human, UniProt P11279 29-417)
# T1 construct: native on tumour cells (PDX, Colo205, SW480, LS174T) or from the cloned CDS NM_005561.3 in HEK293 and HCT116; signal peptide 1-28 left out; also called huLAMP1; full length human LAMP1
# T1 sequence: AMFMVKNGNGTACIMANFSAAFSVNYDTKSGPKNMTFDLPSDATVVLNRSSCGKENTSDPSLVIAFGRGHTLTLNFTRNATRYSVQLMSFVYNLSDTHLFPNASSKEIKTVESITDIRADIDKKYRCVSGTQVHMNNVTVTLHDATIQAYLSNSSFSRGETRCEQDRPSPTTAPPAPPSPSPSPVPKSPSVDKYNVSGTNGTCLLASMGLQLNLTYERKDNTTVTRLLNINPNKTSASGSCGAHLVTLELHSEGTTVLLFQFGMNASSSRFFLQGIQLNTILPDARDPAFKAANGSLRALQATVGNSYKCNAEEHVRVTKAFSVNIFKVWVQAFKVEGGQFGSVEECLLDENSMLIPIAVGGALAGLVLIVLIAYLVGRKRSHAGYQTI
# Test Protocol: flow cytometry, HCT116 huLAMP1 clone 8
Assign EC50 to each entry below.
Answers are plain numbers, in nM.

The following binders have reported results that may help.
| Binder | Observable | Observed |
| --- | --- | --- |
| DM4-SPDB-chMAb3 (antibody, human IgG1, kappa, V domains shown, DM4 linked through SPDB, average DAR 3.7 per antibody; sites not stated) VH: QIQLVQSGPELKKPGETVKISCKASGYIFTNYGMNWVKQAPGKGLKWMGWINTYTGESRYADDFKGRFALSLETSASTAYLQINNLENEDMATYFCAREDYYGNSPWFFDVWGAGTTVTVSS VL: DIQMTQTTSSLSASLGDRVTISCRASQGINKYLNWYQQKPDGTVKLLIYYTSTLHSGVPSRFSGSGSGTDYSLTINNLEPEDIATYYCQQYTRLPFTFGSGTKLEIKR | EC50 | 9.1 |
| DM4-SPDB-chMAb2 (antibody, human IgG1, kappa, V domains shown, DM4 linked through SPDB, average DAR 3.7 per antibody; sites not stated, also called DM4-SPDB-chMAb2can) VH: QVQLQQSAAELARPGASVKMSCKASGYTFTSYTMHWVKQRPGQGLEWIGYFNPSSGYPEYNQKFKDKTTLTADKSSNTAFIQLNSLTSEDSAVYYCSRGYYYGSRGYALDFWGQGTSVTVSS VL: NIVLTQSPASLAVSLGQRATISCRASESVDINGNTFMHWYQQKPGQSPKLLIYAASNLESGVPARFSGSGSGTDFTFTIDPVEADDVATYYCQQNIEDPWTFGGGTKLEIKR | EC50 | 5.5 |

Go through the list and state EC50 for each entry.
1. huMAb1_2 (antibody, human IgG1, kappa, V domains shown, humanized, VH2-huIgG1 and VL2-huCk) VH: QVQLVQSGAELVKPGASVKMSCKASGYIFTNYNIHWVKKSPGQGLEWIGAIYPGNGDAPYSQKFQDRATLTADTSSSTTYMELSSLTSEDSAVYYCVRANWDVAFAYWGQGTLVSVSS VL: DIQMTQSPPSLSASVGGKVTITCKASQDIDRYMAWYQDKPGKGPKLLIHDTSTLQPGIPSRFSGSGSGRDYSFSISNLEPEDIATYYCLQYDNLWTFGGGTKLEIKR
2. huMAb1_3 (antibody, human IgG1, kappa, V domains shown, humanized, VH3-huIgG1 and VL3-huCk) VH: QVQLVQSGAELVKPGASVKMSCKASGYIFTNYNIHWVRQAPGQGLEWIGAIYPGNGDAPYAQKFQGRATLTADTSSSTTYMELSSLTSEDTAVYYCVRANWDVAFAYWGQGTLVTVSS VL: DIQMTQSPSSLSASVGGKVTITCKASQDIDRYMAWYQQKPGKGPKLLIHDTSTLQPGVPSRFSGSGSGRDYSLTISSLEPEDIATYYCLQYDNLWTFGGGTKLEIKR

-- reply
[6.6, 10.3]
